Target: Bromodomain-containing protein 2 (Homo sapiens)
Sequence (P25440 whole entry): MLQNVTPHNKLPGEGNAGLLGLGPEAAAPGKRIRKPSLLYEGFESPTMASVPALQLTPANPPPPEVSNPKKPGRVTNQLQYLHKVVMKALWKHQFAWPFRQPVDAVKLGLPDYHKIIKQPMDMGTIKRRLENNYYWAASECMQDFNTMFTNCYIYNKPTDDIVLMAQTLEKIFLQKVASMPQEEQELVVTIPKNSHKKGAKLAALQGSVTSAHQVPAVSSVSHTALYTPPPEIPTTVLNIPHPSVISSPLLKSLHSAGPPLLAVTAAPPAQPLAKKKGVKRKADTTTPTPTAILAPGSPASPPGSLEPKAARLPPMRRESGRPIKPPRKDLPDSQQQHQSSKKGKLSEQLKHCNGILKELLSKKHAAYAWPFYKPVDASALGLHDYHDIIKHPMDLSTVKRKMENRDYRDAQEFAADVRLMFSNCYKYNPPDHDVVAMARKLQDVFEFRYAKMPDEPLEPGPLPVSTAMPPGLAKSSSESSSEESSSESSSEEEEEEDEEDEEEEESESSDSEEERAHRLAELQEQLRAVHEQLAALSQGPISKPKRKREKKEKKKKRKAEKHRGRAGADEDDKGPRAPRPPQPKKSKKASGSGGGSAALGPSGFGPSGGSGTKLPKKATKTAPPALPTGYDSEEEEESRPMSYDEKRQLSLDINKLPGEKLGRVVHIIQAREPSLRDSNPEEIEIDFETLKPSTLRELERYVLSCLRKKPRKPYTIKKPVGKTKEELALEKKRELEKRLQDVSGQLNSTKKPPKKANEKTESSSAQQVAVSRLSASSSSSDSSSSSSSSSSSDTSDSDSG
Test: Inhibition of BRD2-BD2 (unknown origin) measured by AlphaScreen assay

[
  {
    "SMILES_RECORD": "Cc1ccc(C(C)C)cc1Oc1nccc(-c2c(-c3ccc(C(F)(F)F)cc3)ncn2C2CCNCC2)n1",
    "UNIT": "µM",
    "IC50": 7.1
  }
]

###

Molecular target: Bromodomain-containing protein 3 (Homo sapiens, UniProt Q15059)
Sequence (Q15059 whole entry): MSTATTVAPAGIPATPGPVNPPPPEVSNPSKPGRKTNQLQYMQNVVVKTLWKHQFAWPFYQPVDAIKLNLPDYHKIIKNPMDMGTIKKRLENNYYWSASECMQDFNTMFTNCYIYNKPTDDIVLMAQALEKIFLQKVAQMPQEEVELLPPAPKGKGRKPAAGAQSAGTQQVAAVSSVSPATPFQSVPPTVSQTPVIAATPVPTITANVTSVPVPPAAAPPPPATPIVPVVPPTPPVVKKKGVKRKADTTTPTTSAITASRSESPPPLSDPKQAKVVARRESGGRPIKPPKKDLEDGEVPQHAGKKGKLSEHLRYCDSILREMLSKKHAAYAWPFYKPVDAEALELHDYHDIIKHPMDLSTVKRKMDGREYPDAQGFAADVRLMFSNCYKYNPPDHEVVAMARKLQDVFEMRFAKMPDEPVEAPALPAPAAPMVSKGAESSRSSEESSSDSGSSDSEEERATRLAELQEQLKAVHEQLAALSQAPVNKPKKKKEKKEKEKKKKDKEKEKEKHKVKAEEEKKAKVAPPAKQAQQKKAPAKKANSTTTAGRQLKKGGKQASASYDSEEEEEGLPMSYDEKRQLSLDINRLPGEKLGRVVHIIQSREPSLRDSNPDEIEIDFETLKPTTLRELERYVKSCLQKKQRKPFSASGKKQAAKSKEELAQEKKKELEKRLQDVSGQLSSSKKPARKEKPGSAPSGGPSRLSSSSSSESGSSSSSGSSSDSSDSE
Test: Inhibition of BRD3-BD2 (unknown origin) measured by AlphaScreen assay
pIC50: −log10 of the molar value.
MEASURED_ENDPOINT: pIC50

[
  {
    "SMILES_RECORD": "Cc1ccc(C(C)C)cc1Oc1nccc(-c2c(-c3ccc(C(F)(F)F)cc3)ncn2C2CCNCC2)n1",
    "REPORTED_RESULT": 4.12
  }
]

###

Target: Bromodomain-containing protein 3 (Homo sapiens)
Experiment: Inhibition of BRD3-BD1 (unknown origin) measured by AlphaScreen assay

[
  {
    "SMILES_RECORD": "Cc1ccc(C(C)C)cc1Oc1nccc(-c2c(-c3ccc(C(F)(F)F)cc3)ncn2C2CCNCC2)n1",
    "TARGET": "Bromodomain-containing protein 3 (Homo sapiens)",
    "IC50": "1 µM"
  }
]
